Test system: 876862-298-R-J1-PDC complex spheroids, viability % test/control
ASSAY: Anticancer human tumor 876862-298-R-J1-PDC patient-derived endometrial carcinoma cell line growth inhibition [CLK]; active means viability on the fitted dose curve at most 10% of control; inactive means the rest
SETUP CONDITIONS: second compound 0.316 µM; first compound 3.16 µM
Your reply should match one of these outcome classes. active, inactive

Example entries begin here.
COc1ccc([C@@H](O)c2cc(-c3ncnc4cc(N5CCOCC5)ccc34)c(F)cc2Cl)nn1 + CN1CCN(c2cc(C(=O)Nc3cc4cc(-c5cnn(C)c5)ccc4cn3)ccn2)CC1: active
O=C(c1cc(Cc2n[nH]c(=O)c3ccccc23)ccc1F)N1CCN(C(=O)C2CC2)CC1 + CNC(=O)c1ccc(Nc2nc(OC3CCCC3)c3c(-c4ccc5nc(C)oc5c4)c[nH]c3n2)c(OC)c1: inactive
Nc1ccccc1NC(=O)c1ccc(CNC(=O)OCc2cccnc2)cc1 + CNC(=O)c1ccc(Nc2nc(OC3CCCC3)c3c(-c4ccc5nc(C)oc5c4)c[nH]c3n2)c(OC)c1: inactive
CC(=O)O[C@H]1C(=O)[C@@]2(C)[C@H]([C@H](OC(=O)c3ccccc3)[C@]3(O)C[C@H](OC(=O)[C@H](O)[C@@H](NC(=O)c4ccccc4)c4ccccc4)C(C)=C1C3(C)C)[C@]1(OC(C)=O)CO[C@@H]1C[C@@H]2O + CN1CCN(c2cc(C(=O)Nc3cc4cc(-c5cnn(C)c5)ccc4cn3)ccn2)CC1: active
O=C(c1cc(Cc2n[nH]c(=O)c3ccccc23)ccc1F)N1CCN(C(=O)C2CC2)CC1 + CN1CCN(c2cc(C(=O)Nc3cc4cc(-c5cnn(C)c5)ccc4cn3)ccn2)CC1: active

Attention now shifts to the item below.
-- ask Name the outcome recorded for Nc1ccn(C2OC(CO)C(O)C2(F)F)c(=O)n1 (stereo unspecified) + CN1CCN(c2cc(C(=O)Nc3cc4cc(-c5cnn(C)c5)ccc4cn3)ccn2)CC1 in the assay.
-- reply active

====

Test system: 876862-298-R-J1-PDC complex spheroids, viability % test/control
ASSAY: Anticancer human tumor 876862-298-R-J1-PDC cell line growth inhibition [CLK]; active means viability on the fitted dose curve at most 10% of control; inactive means the rest;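 further: spheroids exposed to drugs for 7 days before readout; 100% = DMSO vehicle control wells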
SETUP CONDITIONS: second compound 0.316 µM; first compound 0.000949 µM
Your reply should match one of these outcome classes. active, inactive

C=CC(=O)Nc1cc(Nc2nccc(-c3cn(C)c4ccccc34)n2)c(OC)cc1N(C)CCN(C)C + CNC(=O)c1ccc(Nc2nc(OC3CCCC3)c3c(-c4ccc5nc(C)oc5c4)c[nH]c3n2)c(OC)c1: inactive
CC(C)CC(NC(=O)C(Cc1ccccc1)NC(=O)c1cnccn1)B(O)O (centres undefined) + CN1CCN(c2cc(C(=O)Nc3cc4cc(-c5cnn(C)c5)ccc4cn3)ccn2)CC1: active
C=CC(=O)Nc1cc(Nc2nccc(-c3cn(C)c4ccccc34)n2)c(OC)cc1N(C)CCN(C)C + CN1CCN(c2cc(C(=O)Nc3cc4cc(-c5cnn(C)c5)ccc4cn3)ccn2)CC1: active

Attention now shifts to the item below.
-- ask Name the outcome recorded for CC(C)CC(NC(=O)C(Cc1ccccc1)NC(=O)c1cnccn1)B(O)O (centres undefined) + CNC(=O)c1ccc(Nc2nc(OC3CCCC3)c3c(-c4ccc5nc(C)oc5c4)c[nH]c3n2)c(OC)c1 in the assay.
-- reply inactive

====

System: 876862-298-R-J1-PDC complex spheroids, viability % test/control
ASSAY: Anticancer human tumor 876862-298-R-J1-PDC cell line growth inhibition [CLK]; active = viability on the fitted dose curve at most 10% of control; inactive = the rest;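 further: spheroids exposed to drugs for 7 days before readout; 100% = DMSO vehicle control wells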
SETUP CONDITIONS: second compound 0.0316 µM; first compound 1 µM
Your reply should match one of these outcome classes. 1 = active, -1 = inactive

CC1(C)CCC(CN2CCN(c3ccc(C(=O)NS(=O)(=O)c4ccc(NCC5CCOCC5)c([N+](=O)[O-])c4)c(Oc4cnc5[nH]ccc5c4)c3)CC2)=C(c2ccc(Cl)cc2)C1 + CN1CCN(c2cc(C(=O)Nc3cc4cc(-c5cnn(C)c5)ccc4cn3)ccn2)CC1: -1
Nc1ccccc1NC(=O)c1ccc(CNC(=O)OCc2cccnc2)cc1 + CN1CCN(c2cc(C(=O)Nc3cc4cc(-c5cnn(C)c5)ccc4cn3)ccn2)CC1: -1
COc1cccc2c1C(=O)c1c(O)c3c(c(O)c1C2=O)CC(O)(C(=O)CO)CC3OC1CC(N)C(O)C(C)O1 (stereo not given) + CN1CCN(c2cc(C(=O)Nc3cc4cc(-c5cnn(C)c5)ccc4cn3)ccn2)CC1: 1
CC1COCCN1c1cc(C2(S(C)(=N)=O)CC2)nc(-c2ccnc3[nH]ccc23)n1 (stereo not given) + CN1CCN(c2cc(C(=O)Nc3cc4cc(-c5cnn(C)c5)ccc4cn3)ccn2)CC1: -1

-- ask Name the outcome recorded for CCN1CCN(Cc2ccc(Nc3ncc(F)c(-c4cc(F)c5nc(C)n(C(C)C)c5c4)n3)nc2)CC1 + CNC(=O)c1ccc(Nc2nc(OC3CCCC3)c3c(-c4ccc5nc(C)oc5c4)c[nH]c3n2)c(OC)c1 in the assay.
-- reply -1

====

Below, each entry is listed alongside its reported viability, T/C.
System: 876862-298-R-J1-PDC complex spheroids, viability % test/control
ASSAY: Anticancer human tumor 876862-298-R-J1-PDC cell line growth inhibition [CLK];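 further: spheroids exposed to drugs for 7 days before readout; 100% = DMSO vehicle control wells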
SETUP CONDITIONS: second compound 0.0316 µM; first compound 1 µM; hits give low values
Lab book: enter the figure in %, no units written.

Here is how some molecules turned out for viability, T/C.
CCc1c2c(nc3ccc(O)cc13)-c1cc3c(c(=O)n1C2)COC(=O)[C@]3(O)CC + CNC(=O)c1ccc(Nc2nc(OC3CCCC3)c3c(-c4ccc5nc(C)oc5c4)c[nH]c3n2)c(OC)c1: 3.65
C=CC(=O)N1CCN(c2nc(=O)n(-c3c(C)ccnc3C(C)C)c3nc(-c4c(O)cccc4F)c(F)cc23)C(C)C1 (stereo not given) + CN1CCN(c2cc(C(=O)Nc3cc4cc(-c5cnn(C)c5)ccc4cn3)ccn2)CC1: 96.3
CC1(C)CCC(CN2CCN(c3ccc(C(=O)NS(=O)(=O)c4ccc(NCC5CCOCC5)c([N+](=O)[O-])c4)c(Oc4cnc5[nH]ccc5c4)c3)CC2)=C(c2ccc(Cl)cc2)C1 + CNC(=O)c1ccc(Nc2nc(OC3CCCC3)c3c(-c4ccc5nc(C)oc5c4)c[nH]c3n2)c(OC)c1: 90.6
Nc1ccn(C2OC(CO)C(O)C2(F)F)c(=O)n1 (stereo not given) + CN1CCN(c2cc(C(=O)Nc3cc4cc(-c5cnn(C)c5)ccc4cn3)ccn2)CC1: 7.52
COc1ccc([C@@H](O)c2cc(-c3ncnc4cc(N5CCOCC5)ccc34)c(F)cc2Cl)nn1 + CN1CCN(c2cc(C(=O)Nc3cc4cc(-c5cnn(C)c5)ccc4cn3)ccn2)CC1: 84.2
CCc1c2c(nc3ccc(O)cc13)-c1cc3c(c(=O)n1C2)COC(=O)[C@]3(O)CC + CN1CCN(c2cc(C(=O)Nc3cc4cc(-c5cnn(C)c5)ccc4cn3)ccn2)CC1: 2.49

-- ask # query: viability, T/C of entry CC(=O)O[C@H]1C(=O)[C@@]2(C)[C@H]([C@H](OC(=O)c3ccccc3)[C@]3(O)C[C@H](OC(=O)[C@H](O)[C@@H](NC(=O)c4ccccc4)c4ccccc4)C(C)=C1C3(C)C)[C@]1(OC(C)=O)CO[C@@H]1C[C@@H]2O + CN1CCN(c2cc(C(=O)Nc3cc4cc(-c5cnn(C)c5)ccc4cn3)ccn2)CC1
-- reply 28.1

-- ask Follow-up entry: COc1ccc([C@@H](O)c2cc(-c3ncnc4cc(N5CCOCC5)ccc34)c(F)cc2Cl)nn1 + CNC(=O)c1ccc(Nc2nc(OC3CCCC3)c3c(-c4ccc5nc(C)oc5c4)c[nH]c3n2)c(OC)c1
-- reply 66.1

-- ask Follow-up entry: CCCS(=O)(=O)Nc1ccc(F)c(C(=O)c2c[nH]c3ncc(-c4ccc(Cl)cc4)cc23)c1F + CN1CCN(c2cc(C(=O)Nc3cc4cc(-c5cnn(C)c5)ccc4cn3)ccn2)CC1
-- reply 101

-- ask Follow-up entry: COc1c(OCCCN2CCOCC2)ccc2c3n(c(=NC(=O)c4cnc(N)nc4)nc12)CCN3 + CNC(=O)c1ccc(Nc2nc(OC3CCCC3)c3c(-c4ccc5nc(C)oc5c4)c[nH]c3n2)c(OC)c1
-- reply 18

====

System: 876862-298-R-J1-PDC complex spheroids, viability % test/control
ASSAY: Anticancer human tumor 876862-298-R-J1-PDC cell line growth inhibition [CLK];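 further: spheroids exposed to drugs for 7 days before readout; 100% = DMSO vehicle control wells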
SETUP CONDITIONS: second compound 3.16 µM; first compound 0.316 µM; hits give low values
ASSAY ENDPOINT: viability, T/C

CC1COCCN1c1cc(C2(S(C)(=N)=O)CC2)nc(-c2ccnc3[nH]ccc23)n1 (stereo not given) + CN1CCN(c2cc(C(=O)Nc3cc4cc(-c5cnn(C)c5)ccc4cn3)ccn2)CC1: 0.92%
C#Cc1c(F)ccc2cc(O)cc(-c3ncc4c(N5CC6CCC(C5)N6)nc(OCC56CCCN5CC(F)C6)nc4c3F)c12 (stereo not given) + CNC(=O)c1ccc(Nc2nc(OC3CCCC3)c3c(-c4ccc5nc(C)oc5c4)c[nH]c3n2)c(OC)c1: 22.8%
COc1cccc2c1C(=O)c1c(O)c3c(c(O)c1C2=O)CC(O)(C(=O)CO)CC3OC1CC(N)C(O)C(C)O1 (stereo not given) + CN1CCN(c2cc(C(=O)Nc3cc4cc(-c5cnn(C)c5)ccc4cn3)ccn2)CC1: 0.9%
CC1COCCN1c1cc(C2(S(C)(=N)=O)CC2)nc(-c2ccnc3[nH]ccc23)n1 (stereo not given) + CNC(=O)c1ccc(Nc2nc(OC3CCCC3)c3c(-c4ccc5nc(C)oc5c4)c[nH]c3n2)c(OC)c1: 17.2%

Okay, now this compound:
-- ask Give the reported viability, T/C for CC(Nc1ccc2c(c1)OCCn1cc(N3C(=O)OCC3C(F)F)nc1-2)C(N)=O (stereo not given) + CNC(=O)c1ccc(Nc2nc(OC3CCCC3)c3c(-c4ccc5nc(C)oc5c4)c[nH]c3n2)c(OC)c1 (system: 876862-298-R-J1-PDC complex spheroids, viability % test/control).
-- reply 15.1%
